Reported values of composite z-score for individual entries
target_desc: Albumin (Bos taurus) (UniProt P02769)
Sequence (P02769 whole entry, looked up): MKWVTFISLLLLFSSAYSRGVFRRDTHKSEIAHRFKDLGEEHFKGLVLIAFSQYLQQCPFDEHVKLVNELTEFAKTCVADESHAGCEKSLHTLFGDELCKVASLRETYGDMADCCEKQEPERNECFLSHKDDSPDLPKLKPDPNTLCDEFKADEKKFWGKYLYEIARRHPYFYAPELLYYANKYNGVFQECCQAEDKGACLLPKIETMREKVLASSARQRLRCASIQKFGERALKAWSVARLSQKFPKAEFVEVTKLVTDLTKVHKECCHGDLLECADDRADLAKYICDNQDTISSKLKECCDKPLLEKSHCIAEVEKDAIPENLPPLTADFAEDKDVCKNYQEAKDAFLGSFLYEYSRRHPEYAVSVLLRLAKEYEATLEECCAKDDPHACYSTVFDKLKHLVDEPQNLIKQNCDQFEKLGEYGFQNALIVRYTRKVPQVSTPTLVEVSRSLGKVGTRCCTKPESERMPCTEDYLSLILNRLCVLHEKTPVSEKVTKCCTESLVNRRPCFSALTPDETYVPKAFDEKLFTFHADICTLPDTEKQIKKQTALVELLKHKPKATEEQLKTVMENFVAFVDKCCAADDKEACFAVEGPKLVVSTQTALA
measurement_protocol: bovine serum albumin binders on microarray, profiling panel, artefact control for SMM control protein annotation, biochemical, small-molecule microarray, Alexa647 label, 635/667 nm fluorescence (AID 1118);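 note: score merges 667 nm emission intensity and signal-to-noise per printed compound spot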
assay_setup: BSA-A647 binding, fluorescence 635 nm, higher = more signal
quantity: composite z-score

>>> quantitative_result("CCOC(=O)CCN1C(=O)[C@H]2[C@H]3[C@H](O)[C@H](O)CC(=NOCc4ccccc4)[C@@H]3CC[C@H]2C1=O")
0.762
>>> quantitative_result("CC(=O)OC[C@H]1O[C@H](C#CCCCc2ccccc2)C=C[C@@H]1OC(C)=O")
0.495
>>> quantitative_result("CC(CCN1CCc2nc(-c3ccccc3)c(-c3ccccc3)cc2C1)=NOC(C)CN1CCCCc2nc(C)c(C)cc21 (configuration not stated)")
0.56
>>> quantitative_result("COc1ccc(COC(=O)NN=C2C[C@@H](O)[C@@H](O)[C@@H]3[C@@H]4C(=O)N(Cc5ccc6c(c5)OCO6)C(=O)[C@@H]4CC[C@@H]23)cc1")
-0.152
>>> quantitative_result("CC(C)=CCCC(C)=CCON=C1[C@H]2CCn3c(=O)n(Cc4cc5c(cc4Cl)OCO5)c(=O)n3[C@H]2[C@H](O)[C@@H]2O[C@H]12")
-0.0415
>>> quantitative_result("CS(=O)(=O)CCOC(=O)C1=CC(CCCO)=CC(c2cccs2)N(Cc2cccc(OC(F)(F)F)c2)C=C1C(=O)OCCS(C)(=O)=O (configuration not stated)")
1.03
>>> quantitative_result("NC(=O)NCC#Cc1ccc2c(c1)[C@]1(C(=O)N2)[C@H](c2ccc(O)cc2)N2[C@H](c3ccccc3)[C@H](c3ccccc3)OC(=O)[C@H]2[C@@H]1C(=O)N1CCCCCCC1")
-0.476

* * *

target_desc: Torsin-1A (Homo sapiens)
measurement_protocol: small-molecule binders of mutant TOR1A in lysate, primary screen, cell lysate, small-molecule microarray, COS7 lysate, 635/667 nm fluorescence (AID 1150);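 note: score pools 667 nm emission and signal to noise measuring lysate protein binding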
assay_setup: COS7 hTOR1A mutant lysate, 635 nm fluorescence, higher = more signal
Classification field: 1 (yes) = composite z-score at or over 0.3; 0 (no) = composite z-score under 0.3.

>>> assigned_class("O=C1C[C@@H](O)[C@@H](O)[C@@H]2[C@@H]3C(=O)N(Cc4ccc5c(c4)OCO5)C(=O)[C@@H]3CC[C@@H]12")
"1 (yes)"
>>> assigned_class("[N-]=[N+]=NCc1ccccc1C[C@]1(C(=O)NCc2ccccc2)N=C(c2ccc(OCCCO)cc2)O[C@H]1c1ccccc1N=[N+]=[N-]")
"1 (yes)"
>>> assigned_class("COC(=O)[C@@H]1N=C(c2ccc(OCCCO)cc2)O[C@@H]1c1ccccc1N=[N+]=[N-]")
"1 (yes)"
>>> assigned_class("COC(=O)CC=C[C@H](C)[C@H](CO)NS(=O)(=O)c1ccc(C)cc1")
"0 (no)"
>>> assigned_class("COC(=O)[C@H](C)NC(=O)CCC1CC(OC(=O)NCCc2ccc(F)cc2)CC2(CCCC(COC(=O)NCC(c3ccccc3)c3ccccc3)O2)O1 (some centres not stated)")
"1 (yes)"
>>> assigned_class("CCOC(=O)[C@H](CC(C)C)NC(=O)CCC1CC(OC(=O)NCc2cccc3ccccc23)CC2(CCCC(COC(=O)NCCN3CCOCC3)O2)O1 (some centres not stated)")
"1 (yes)"
>>> assigned_class("COC(=O)[C@@H]1CC[C@H](C)[C@@H](c2ccc(C)cc2)N1C(=O)c1ccc(C=NOC[C@@H](O)COCc2ccco2)cc1")
"0 (no)"

* * *

measurement_protocol: small-molecule microarray binders of probe aShh, primary screen, biochemical, biotinylated probe, 635/667 nm fluorescence (AID 1114);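 note: probe is biotin-labelled aShh protein from a stem cell growth factor screen; measures binding of labelled protein to compounds printed on the slide; score merges feature fluorescence at 667 nm with signal-to-noise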
assay_setup: higher = more signal
quantity: composite z-score

>>> result("Cc1cc2c(nc1C)CCCN2CC(C)ON=C1[C@H]2CCn3c(=O)n(-c4ccccc4)c(=O)n3[C@H]2[C@H](O)[C@@H]2O[C@H]12 (some centres undefined)")
0.767
>>> result("O=C1C[C@@H](O)[C@@H](O)[C@@H]2[C@@H]3C(=O)N(Cc4ccc5c(c4)OCO5)C(=O)[C@@H]3CC[C@@H]12")
0.0278
>>> result("NC(=O)NCC#Cc1ccc2c(c1)[C@]1(C(=O)N2)[C@H](c2ccc(O)cc2)N2[C@H](c3ccccc3)[C@H](c3ccccc3)OC(=O)[C@H]2[C@@H]1C(=O)N1CCCCCCC1")
0.462
>>> result("C[C@H](c1ccccc1)N1C(=O)[C@H]2[C@H]3[C@H](O)[C@H](O)CC(=O)[C@@H]3CC[C@H]2C1=O")
-0.237
>>> result("CC[C@@H](c1ccccc1)n1c(=O)n2n(c1=O)[C@H]1[C@H](O)[C@@H]3O[C@@H]3C(=NOCC(C)C)[C@H]1CC2")
-0.14
>>> result("O=C1CCCC=C1C(O)CCOCc1ccccc1 (centres undefined)")
-0.209
>>> result("O=C1[C@H]2[C@H]3[C@H](O)[C@H](O)CC(=NOC[C@@H](O)COCc4ccco4)[C@H]3CC[C@H]2C(=O)N1C1CCCCC1")
-0.138
>>> result("O=C1[C@H]2[C@H]3[C@H](O)[C@H](O)CC(=NOCc4ccccc4)[C@H]3CC[C@H]2C(=O)N1c1ccc(F)cc1F")
-0.339
>>> result("CO[C@H]1COC(=O)[C@@H]2CCCN2C(=O)[C@@H](C)COC(=O)CC=C[C@@H]1C")
-0.0793
>>> result("CCc1cc2c(nc1CC)CCN(CCC(C)=NOC(C)CN1CCCc3nc(C)c(C)cc31)C2 (centres undefined)")
1.38
>>> result("COC(=O)[C@@]1(Cc2ccc(F)cc2)[C@@H]2C(=CC(=O)[C@H]2CC(=O)C(=O)N(C)C)CN1C(=O)c1ccccc1")
1.21
>>> result("COC(=O)[C@H](C)NC(=O)CCC1CC(OC(=O)NCCc2ccc(F)cc2)CC2(CCCC(COC(=O)NCC(c3ccccc3)c3ccccc3)O2)O1 (some centres undefined)")
0.0062
>>> result("CO[C@@H]1COC(=O)CC=C[C@@H](C)COC(=O)[C@H](COCc2ccccc2)NC(=O)CC=C[C@H]1C")
0.0278
>>> result("CC(C)C[C@@H]1NC(=O)[C@H]2C[C@@H](C(=O)O)[C@@H](c3ccc(O)cc3)N2C1=O")
0.0611
>>> result("C=CCNC(=O)[C@H]1[C@@H]2C(=O)O[C@@H](c3ccccc3)[C@@H](c3ccccc3)N2[C@@H](c2ccc(O)cc2)[C@]12C(=O)N(C(=O)OCCOC)c1ccc(C#CC3=CCCCC3)cc12")
1.92
>>> result("CC(C)(C)N1C(=O)[C@H]2[C@H]3[C@H](O)[C@H](O)CC(=NO[C@@H]4O[C@H](CO)[C@@H](O)[C@H](O)[C@H]4O)[C@@H]3CC[C@H]2C1=O")
0.111
>>> result("CC(C)NC(=O)[C@@]1(c2ccc([N+](=O)[O-])cc2)CC(=O)N(CC23CC4CC(CC(C4)C2)C3)[C@@H]1c1ccc(CO)cc1I")
0.0796
>>> result("COc1ccc([Si](C)(C)[C@@H]2[C@@H](CC(=O)N3CCC[C@H]3CO)O[C@]3(C(=O)N(Cc4cccc(N5CCC5=O)c4)c4ccccc43)[C@H]2C)cc1")
0.199
>>> result("CC(C)N1CC=CC23O[C@@H]4C=CCCOC(=O)C4[C@H]2C(=O)N(CCCCCCO)[C@@H]3C1=O (some centres undefined)")
-0.221
>>> result("CCOC(=O)NN=C1C[C@@H](O)[C@@H](O)[C@@H]2[C@@H]3C(=O)N(CC)C(=O)[C@@H]3CC[C@@H]12")
-0.0977
>>> result("COC(=O)[C@H](C)NC(=O)CCC1CC(OC(=O)NCc2cccc3ccccc23)CC2(CCCC(COC(=O)NCC3CCCCC3)O2)O1 (some centres undefined)")
-0.0035
>>> result("C=CCOC(=O)[C@H]1[C@@H]2C(=O)O[C@@H](c3ccccc3)[C@@H](c3ccccc3)N2[C@@H](c2ccc(OCCOC(=O)[C@H]3C[C@H]4C(=O)N[C@@H](Cc5ccccc5)C(=O)N4[C@H]3c3ccc(O)cc3)cc2)[C@]12C(=O)Nc1ccccc12")
-0.0709
>>> result("C#C[C@@H]1Oc2ccccc2S(=O)(=O)N2CCC[C@H]12")
0.0893
>>> result("O=C1[C@H]2[C@H]3[C@H](O)[C@H](O)CC(=NOCc4ccccc4)[C@H]3CC[C@H]2C(=O)N1c1cccc(Oc2ccccc2)c1")
-0.16
>>> result("CCOc1ccc(N2C(=O)/C(=C/C=C/c3ccccc3OC)S(=O)(=O)C2c2cccc([N+](=O)[O-])c2)cc1 (centres undefined)")
-0.2
>>> result("CC(C)CON=C1[C@H]2CCn3c(=O)n(-c4ccccc4)c(=O)n3[C@H]2[C@H](O)[C@@H]2O[C@H]12")
-0.267
>>> result("COC(=O)[C@@H]1CCCN1C(=O)[C@@H](C)CO")
-0.2
>>> result("CC(CCC(=O)OC[C@H]1O[C@H](C#Cc2ccccc2)C=C[C@@H]1Oc1ccc(C)cc1)=NOC[C@@H](O)COCc1ccco1")
-0.206
>>> result("CN1C(=O)C2C=CC(C(O)c3ccc(Br)cc3)N(N(c3ccccc3)c3ccccc3)C2C1=O (centres undefined)")
0.0639
